# assay_protocol: NCI Yeast Anticancer Drug Screen. Data for the rad50 strain (AID 155);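 further: 0% = growth of vehicle-only cultures of the same strain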
# measurement_context: S. cerevisiae rad50 strain growth inhibition; at 50.0 µM; stronger effect = higher value
This is part of a sample that, as a whole, favours compounds with a hit. Of some 79,000 tested, about 15% had one in any assay.
For each entry below, report its growth inhibition value.
Answers are plain numbers, in %.

Answered examples (2):
O=C(O)c1cc(C(=O)O)c(C(=O)O)cc1C(=O)O.[NH-]C1CCCC1.[NH-]C1CCCC1.[NH-]C1CCCC1.[NH-]C1CCCC1.[Pt+2].[Pt+2] | 99.5
C1=C(c2ccccc2)[P+](c2ccccc2)(c2ccccc2)C=C(c2ccccc2)[P+]1(c1ccccc1)c1ccccc1 | 99.3

For every item in the list below, what is its measured growth inhibition?
1. Cc1cc(Nc2ccc(N=Nc3ccc(O)c4ncccc34)cc2)nc(C)n1
2. CCN1CCC(O)(/C=C/c2ccccc2C)C(C(=O)/C=C/c2ccccc2C)C1 (centres undefined)

### Response
1. 71.1
2. 94.4

====

For each entry below, report its growth inhibition value.
# assay_protocol: NCI Yeast Anticancer Drug Screen. Data for the rad50 strain (AID 155);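 further: 0% = growth of vehicle-only cultures of the same strain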
# measurement_context: S. cerevisiae rad50 strain growth inhibition; at 50.0 µM; stronger effect = higher value
The panel holds about 79,000 compounds, 15% with a hit somewhere; the sample as a whole holds those more often.
Numbers only, in %.

Answered examples (6):
Oc1ccc(N(Cc2ccccc2)Cc2ccccc2)cc1 | 98.2
FC(F)(F)c1ccc(-c2ccc(OCCN3CCCC3)cc2)cc1 | 98.6
CC(=O)OC1=Cc2ccccc2C(c2ccccc2)c2ccccc21 (configuration not stated) | 14.3
O=C(c1ccc(Oc2ccccc2)cc1)C(C(c1ccccc1)N1CCOCC1)N1CCOCC1 (configuration not stated) | 61.1
S=C(NCc1ccccc1)N/N=C/c1ccccn1 | 20.6
O=C(C[n+]1ccccc1Cl)c1ccc(F)cc1 | -8

For every item in the list below, what is its measured growth inhibition?
1. CC(C)(C)OC(=O)NCCNC(=O)CN(CC(=O)O)C1CCCCC1N(CC(=O)O)CC(=O)O (configuration not stated)
2. COc1ccc(C2=C(Cl)C(=O)N(c3ccc(OC)cc3)C(=O)C2(Cl)Cl)cc1

### Response
1: 50.4; 2: 85.6

====

# assay_protocol: NCI Yeast Anticancer Drug Screen. Data for the mlh1 rad18 strain (AID 175)
# measurement_context: S. cerevisiae mlh1 rad18 strain growth inhibition; at 50.0 µM (retest, dose inferred, filed as 5.0)
About 79,000 compounds went through this panel and 15% of them were active in at least one assay; those are over-represented in the sample as a whole. Active and inactive are the calls of the source. No stated cut-off is given here; in the data, active means growth inhibition above about 70%; inactive means the rest.
Return exactly one item of active, inactive

Worked set:
COc1nc(NC2OCC(O)C(O)C2O)c(Cl)c(=O)n1C (stereo unspecified) | inactive
CCCCCCCCCCn1cc[nH]c1=S | active
CCN1CCC(O)(/C=C/c2cccc(C)c2)C(C(=O)/C=C/c2cccc(C)c2)C1 (stereo unspecified) | active
Cc1c2ccccc2c(=O)n2c(-c3ccccn3)cccc12 | inactive
Cc1c(N)nc(C(CC(N)=O)NCC(N)C(N)=O)nc1C(=O)NC(C(=O)NC(C)C(O)C(C)C(=O)NC(C(=O)NCCc1nc(-c2nc(C(=O)NCCCNC(C)c3ccccc3)cs2)cs1)C(C)O)C(OC1OC(CO)C(O)C(O)C1OC1OC(CO)C(O)C(OC(N)=O)C1O)c1cnc[nH]1 (stereo unspecified) | active

### Prompt Check the results log: what was the call for CC(=O)Nc1nnc(-c2coc3ccccc3c2=O)s1 ?
### Response inactive

### Prompt Check the results log: what was the call for N#Cc1ccc(OC(=O)Nc2c(Cl)cccc2Cl)cc1 ?
### Response inactive

### Prompt Check the results log: what was the call for N#CC(c1c(Cl)cccc1N1CCCCC1)N1CCCCC1 (stereo unspecified) ?
### Response active
